What Nutsedge plant response rating was measured for each of the following?
System: purple nutsedge
methodDescription: Test B pre/postemergence purple nutsedge
Assay type: in vivo, Cyperus rotundus
appliedConditions: Postemergence, Rate 62 g/ha; scale of 0 to 10, 0 is no effect, 10 is complete control
Numbers only.

Here is how some molecules turned out for Nutsedge plant response rating.
molecule	Nutsedge plant response rating
CC(=O)OCCCCn1c(=O)on(C(=O)N(c2ccc(Cl)cc2)C(C)C)c1=O [Compound 536]	0
CC(C)N(C(=O)n1oc(=O)n(CCC2OCCCO2)c1=O)c1ccc(Cl)cc1 [Compound 532]	4
CC(C)N(C(=O)n1oc(=O)n(C[Si](C)(C)C)c1=O)c1ccc(F)cc1F [Compound 518]	0

// batch mode: one Nutsedge plant response rating value per listed entry
1. CC(C)N(C(=O)n1oc(=O)n(CC2CCC2)c1=O)c1ccc(Cl)cc1 [Compound 550]
2. CC(C)N(C(=O)n1oc(=O)n(CCc2ccccc2)c1=O)c1ccccc1 [Compound 567]
3. CCN(CC)C(=O)Cn1c(=O)on(C(=O)N(c2ccc(F)cc2F)C(C)C)c1=O [Compound 512]

Reply:
1. 0
2. 4
3. 0

The values you see were collected from patent US6737383B1.
